Biological target: hERG ion channel (Homo sapiens)
Construct: expressed in transfected cells; host or cells: HEK-293, stably transfected
Sequence (Q12809 whole entry): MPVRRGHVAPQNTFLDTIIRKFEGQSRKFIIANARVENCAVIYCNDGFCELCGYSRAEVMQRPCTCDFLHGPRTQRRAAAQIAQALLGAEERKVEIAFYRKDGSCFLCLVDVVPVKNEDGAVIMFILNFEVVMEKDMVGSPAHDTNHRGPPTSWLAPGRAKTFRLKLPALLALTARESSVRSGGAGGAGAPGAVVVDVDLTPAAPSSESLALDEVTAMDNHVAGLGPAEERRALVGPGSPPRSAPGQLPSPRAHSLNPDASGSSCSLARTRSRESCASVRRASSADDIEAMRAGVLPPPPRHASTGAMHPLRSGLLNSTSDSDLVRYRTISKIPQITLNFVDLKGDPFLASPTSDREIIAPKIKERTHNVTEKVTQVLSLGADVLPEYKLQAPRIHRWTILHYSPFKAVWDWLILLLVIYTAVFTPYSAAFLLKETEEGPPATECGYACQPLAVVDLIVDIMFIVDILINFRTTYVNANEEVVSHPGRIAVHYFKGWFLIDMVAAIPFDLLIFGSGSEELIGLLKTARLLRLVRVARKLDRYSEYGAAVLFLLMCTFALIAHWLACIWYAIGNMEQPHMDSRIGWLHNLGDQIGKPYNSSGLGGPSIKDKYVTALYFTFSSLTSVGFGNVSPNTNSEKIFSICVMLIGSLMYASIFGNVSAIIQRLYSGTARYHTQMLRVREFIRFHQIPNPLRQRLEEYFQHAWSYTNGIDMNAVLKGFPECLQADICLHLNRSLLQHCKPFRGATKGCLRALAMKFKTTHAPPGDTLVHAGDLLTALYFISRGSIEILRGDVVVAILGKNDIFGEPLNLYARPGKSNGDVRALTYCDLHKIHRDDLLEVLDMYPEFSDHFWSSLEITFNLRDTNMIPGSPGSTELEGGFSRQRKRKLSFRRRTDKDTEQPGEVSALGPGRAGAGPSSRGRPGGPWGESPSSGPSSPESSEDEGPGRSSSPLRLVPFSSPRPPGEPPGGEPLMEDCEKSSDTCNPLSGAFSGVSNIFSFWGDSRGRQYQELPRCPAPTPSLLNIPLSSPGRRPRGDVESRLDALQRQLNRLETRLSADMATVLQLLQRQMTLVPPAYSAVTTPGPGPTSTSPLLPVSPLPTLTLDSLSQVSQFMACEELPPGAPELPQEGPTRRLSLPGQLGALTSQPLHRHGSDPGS
Test: hERG tail current, patch-clamp in HEK-293 cells stably transfected with hERG
Assay type: cell-based
Conditions: peak hERG tail current, HEK-293, corrected for vehicle and rundown, sigmoidal fit; read-out: hERG IC50
# IC50 per entry
Please state the figure in µM; there is no need to write the unit.

> print(dat)
                                   compound  units  endpoint.value
1  O=C(O)c1ccccc1-c1ccc(CN2CCC(COC(=O)c3c4n(c5ccccc35)CCCO4)CC2)cc1 [Compound 8]     µM            47.5

IC50 lookup needed for O=C(OCC1CCN(C2CCC(C(=O)O)C2)CC1)c1c2n(c3ccccc13)CCCO2 (stereo not drawn) [Compound 24] , thanks.
209

What value of measured IC50 is listed for O=C(NCC1CCN(Cc2ccc(-c3ccccc3-c3nn[nH]n3)cc2)CC1)c1c2n(c3ccccc13)CCCO2 [Compound 2] ?
27.5
